# System: Streptococcus pyogenes
# test-description: Antibacterial activity against Streptococcus pyogenes 8668 by broth microdilution method
# Format: functional
Listing: MIC of selected compounds

record-smiles	MIC
CC[C@H]1OC(=O)[C@H](C)C(=O)[C@H](C)[C@@H](O[C@@H]2O[C@H](C)C[C@H](N(C)C)[C@H]2O)[C@](C)(OC)C[C@@H](C)C(=O)[C@H](C)[C@@H]2[C@@H]1OC(=O)N2CCCCc1ccc2ccccc2n1	≤ 0.05 µg/mL
CC[C@H]1OC(=O)[C@H](C)C(=O)[C@H](C)[C@@H](O[C@@H]2O[C@H](C)C[C@H](N(C)C)[C@H]2O)[C@](C)(OC)C[C@@H](C)C(=O)[C@H](C)[C@@H]2[C@@H]1OC(=O)N2CCCCc1ncc(-c2ccccc2)s1	0.2 µg/mL
CC[C@H]1OC(=O)[C@H](C)C(=O)[C@H](C)[C@@H](O[C@@H]2O[C@H](C)C[C@H](N(C)C)[C@H]2O)[C@](C)(OC)C[C@@H](C)C(=O)[C@H](C)[C@@H]2[C@@H]1OC(=O)N2CCCCn1ccc2ncccc21	≤ 0.05 µg/mL

// moving on: another record for MIC
### Prompt Which MIC value is on record for `CC[C@H]1OC(=O)[C@H](C)C(=O)[C@H](C)[C@@H](O[C@@H]2O[C@H](C)C[C@H](N(C)C)[C@H]2O)[C@](C)(OC)C[C@@H](C)C(=O)[C@H](C)[C@@H]2[C@@H]1OC(=O)N2CCCCc1ccc(-c2cncnc2)s1` ?
### Response ≤ 0.05 µg/mL

====

# Tested on: Staphylococcus aureus
# test-description: Antibacterial activity against Staphylococcus aureus 29213 by broth microdilution method
# Type: functional
# study-conditions: ATCC29213
readout-name: MIC
Please provide the amount together with its unit, number first.

### Prompt Which MIC value is on record for `CC[C@H]1OC(=O)[C@H](C)C(=O)[C@H](C)[C@@H](O[C@@H]2O[C@H](C)C[C@H](N(C)C)[C@H]2O)[C@](C)(OC)C[C@@H](C)C(=O)[C@H](C)[C@@H]2[C@@H]1OC(=O)N2CCCCn1cnc(-c2ccc(OC)nc2)c1` ?
### Response 0.2 µg/mL

### Prompt Which MIC value is on record for `CC[C@H]1OC(=O)[C@H](C)C(=O)[C@H](C)[C@@H](O[C@@H]2O[C@H](C)C[C@H](N(C)C)[C@H]2O)[C@](C)(OC)C[C@@H](C)C(=O)[C@H](C)[C@@H]2[C@@H]1OC(=O)N2CCCCc1ncc(-c2cccc(N)c2)s1` ?
### Response 0.4 µg/mL

### Prompt Which MIC value is on record for `CC[C@H]1OC(=O)[C@H](C)C(=O)[C@H](C)[C@@H](O[C@@H]2O[C@H](C)C[C@H](N(C)C)[C@H]2O)[C@](C)(OC)C[C@@H](C)C(=O)[C@H](C)[C@@H]2[C@@H]1OC(=O)N2CCCCn1cnc(-c2ccc(F)nc2)c1` ?
### Response 0.2 µg/mL

### Prompt Which MIC value is on record for `CC[C@H]1OC(=O)[C@H](C)C(=O)[C@H](C)[C@@H](O[C@@H]2O[C@H](C)C[C@H](N(C)C)[C@H]2O)[C@](C)(OC)C[C@@H](C)C(=O)[C@H](C)[C@@H]2[C@@H]1OC(=O)N2CCCCn1cnc(-c2ccccc2)c1` ?
### Response 0.2 µg/mL

### Prompt Which MIC value is on record for `CC[C@H]1OC(=O)[C@H](C)C(=O)[C@H](C)[C@@H](O[C@@H]2O[C@H](C)C[C@H](N(C)C)[C@H]2O)[C@](C)(OC)C[C@@H](C)C(=O)[C@H](C)[C@@H]2[C@@H]1OC(=O)N2CCCCc1ccc(-c2cncnc2)s1` ?
### Response 0.2 µg/mL
